This collection of values is drawn from ChEMBL document CHEMBL2413072.

System: TK-10
ASSAY_METHOD_TEXT: Growth inhibition of human TK10 cells by sulforhodamine B assay
Type: functional
MEASUREMENT_SETUP: read-out: GI50
hey, just use MET if measured GI50 is less than 5 µM, otherwise NOT MET

{"SMILES_NOTATION": "CC1(C)C[C@@H](O)[C@]2(C(=O)O)CC[C@]3(C)C(=CC[C@@H]4[C@@]5(C)C/C(=C\\C=C\\c6ccccc6)C(=O)C(C)(C)[C@@H]5CC[C@]43C)[C@@H]2C1", "LABEL": "MET"}
{"SMILES_NOTATION": "CC(C)=CC(=O)O[C@@H]1CC(C)(C)C[C@H]2C3=CC[C@@H]4[C@@]5(C)CC[C@H](O)C(C)(C)[C@@H]5CC[C@@]4(C)[C@]3(C)CC[C@@]12C(=O)O", "LABEL": "NOT MET"}
{"SMILES_NOTATION": "C/C=C(/C)C(=O)O[C@@H]1CC(C)(C)C[C@H]2C3=CC[C@@H]4[C@@]5(C)CC[C@H](O)C(C)(C)[C@@H]5CC[C@@]4(C)[C@]3(C)CC[C@@]12C(=O)O", "LABEL": "MET"}
{"SMILES_NOTATION": "C/C=C(/C)C(=O)O[C@@H]1CC(C)(C)C[C@H]2C3=CC[C@@H]4[C@@]5(C)CCC(=O)C(C)(C)[C@@H]5CC[C@@]4(C)[C@]3(C)CC[C@@]12C(=O)O", "LABEL": "NOT MET"}
{"SMILES_NOTATION": "CC(C)=CC(=O)O[C@@H]1CC(C)(C)C[C@H]2C3=CC[C@@H]4[C@@]5(C)CCC(=O)C(C)(C)[C@@H]5CC[C@@]4(C)[C@]3(C)CC[C@@]12C(=O)O", "LABEL": "NOT MET"}
